Test system: Candida albicans
measurement protocol: In vitro Fungicidal activity (MFC) against Candida albicans (MY 1055).
Format: functional
Numbered stars: 1 amine (or outer) side, 2 acyl side, 3 side chain; on linkers, the order of the positions; unused ones are H or OH. Bridge positions count the residues as written; N and C are the ends. Square brackets hold non-standard residues; d marks the D form. Peptide text beside a SMILES is read from it. * marks the point of attachment. Orn(4R-OH,5R-OH) = O=C([C@H](C[C@@H](O)[C@@H](O)N[*:3])N[*:1])[*:2]; hTyr(3S-OH,4S-OH) = N[C@H](C(=O)O)[C@H](O)[C@@H](O)c1ccc(O)cc1; Orn(4R-OH) = O=C([C@H](C[C@@H](O)CN[*:3])N[*:1])[*:2]; hTyr(3R-OH) = N[C@H](C(=O)O)[C@H](O)Cc1ccc(O)cc1; X5 = NC(N)=NCC[C@@H](O)[C@H](N[*:1])C(=O)[*:2]; X4 = N=C(S)C[C@@H](O)[C@H](N[*:1])C(=O)[*:2]; Orn(3R-OH) = NCC[C@@H](O)[C@H](N)C(=O)O; Pro(3S-OH) = O=C(O)[C@H]1NCC[C@@H]1O; Hyp = O=C(O)[C@@H]1C[C@@H](O)CN1; X1 = CCC(C)CC(C)CCCCCCCCC(=O)*

{"compound": "CCC(C)CC(C)CCCCCCCCC(=O)N[C@H]1C[C@@H](O)CNC(=O)[C@@H]2[C@@H](O)CCN2C(=O)[C@H]([C@H](O)CC(=N)S)NC(=O)[C@H]([C@H](O)Cc2ccc(O)cc2)NC(=O)[C@@H]2C[C@@H](O)CN2C(=O)[C@H]([C@@H](C)O)NC1=O (stereo partly drawn) (X1-[Orn(4R-OH)]T[Hyp][hTyr(3R-OH)][X4][Pro(3S-OH)]; lactam 1-C)", "qualifying sign": "=", "MFC (µg/mL)": 0.25}
{"compound": "CCC(C)CC(C)CCCCCCCCC(=O)N[C@H]1C[C@@H](O)[C@@H](O)NC(=O)[C@@H]2[C@@H](O)CCN2C(=O)[C@H]([C@H](O)CCN=C(N)N)NC(=O)[C@H]([C@H](O)[C@@H](O)c2ccc(O)cc2)NC(=O)[C@@H]2C[C@@H](O)CN2C(=O)[C@H]([C@@H](C)O)NC1=O (stereo partly drawn) (X1-[Orn(4R-OH,5R-OH)]T[Hyp][hTyr(3S-OH,4S-OH)][X5][Pro(3S-OH)]; lactam 1-C)", "qualifying sign": "<", "MFC (µg/mL)": 0.06}
{"compound": "CCC(C)CC(C)CCCCCCCCC(=O)N[C@H]1C[C@@H](O)CNC(=O)[C@@H]2[C@@H](O)CCN2C(=O)[C@H]([C@H](O)CCN)NC(=O)[C@H]([C@H](O)Cc2ccc(O)cc2)NC(=O)[C@@H]2C[C@@H](O)CN2C(=O)[C@H]([C@@H](C)O)NC1=O (stereo partly drawn) (X1-[Orn(4R-OH)]T[Hyp][hTyr(3R-OH)][Orn(3R-OH)][Pro(3S-OH)]; lactam 1-C)", "qualifying sign": "=", "MFC (µg/mL)": 0.125}

* * *

assayed system: Beta-1,3-glucan synthase (Candida albicans, UniProt O13428)
Sequence (O13428 whole entry): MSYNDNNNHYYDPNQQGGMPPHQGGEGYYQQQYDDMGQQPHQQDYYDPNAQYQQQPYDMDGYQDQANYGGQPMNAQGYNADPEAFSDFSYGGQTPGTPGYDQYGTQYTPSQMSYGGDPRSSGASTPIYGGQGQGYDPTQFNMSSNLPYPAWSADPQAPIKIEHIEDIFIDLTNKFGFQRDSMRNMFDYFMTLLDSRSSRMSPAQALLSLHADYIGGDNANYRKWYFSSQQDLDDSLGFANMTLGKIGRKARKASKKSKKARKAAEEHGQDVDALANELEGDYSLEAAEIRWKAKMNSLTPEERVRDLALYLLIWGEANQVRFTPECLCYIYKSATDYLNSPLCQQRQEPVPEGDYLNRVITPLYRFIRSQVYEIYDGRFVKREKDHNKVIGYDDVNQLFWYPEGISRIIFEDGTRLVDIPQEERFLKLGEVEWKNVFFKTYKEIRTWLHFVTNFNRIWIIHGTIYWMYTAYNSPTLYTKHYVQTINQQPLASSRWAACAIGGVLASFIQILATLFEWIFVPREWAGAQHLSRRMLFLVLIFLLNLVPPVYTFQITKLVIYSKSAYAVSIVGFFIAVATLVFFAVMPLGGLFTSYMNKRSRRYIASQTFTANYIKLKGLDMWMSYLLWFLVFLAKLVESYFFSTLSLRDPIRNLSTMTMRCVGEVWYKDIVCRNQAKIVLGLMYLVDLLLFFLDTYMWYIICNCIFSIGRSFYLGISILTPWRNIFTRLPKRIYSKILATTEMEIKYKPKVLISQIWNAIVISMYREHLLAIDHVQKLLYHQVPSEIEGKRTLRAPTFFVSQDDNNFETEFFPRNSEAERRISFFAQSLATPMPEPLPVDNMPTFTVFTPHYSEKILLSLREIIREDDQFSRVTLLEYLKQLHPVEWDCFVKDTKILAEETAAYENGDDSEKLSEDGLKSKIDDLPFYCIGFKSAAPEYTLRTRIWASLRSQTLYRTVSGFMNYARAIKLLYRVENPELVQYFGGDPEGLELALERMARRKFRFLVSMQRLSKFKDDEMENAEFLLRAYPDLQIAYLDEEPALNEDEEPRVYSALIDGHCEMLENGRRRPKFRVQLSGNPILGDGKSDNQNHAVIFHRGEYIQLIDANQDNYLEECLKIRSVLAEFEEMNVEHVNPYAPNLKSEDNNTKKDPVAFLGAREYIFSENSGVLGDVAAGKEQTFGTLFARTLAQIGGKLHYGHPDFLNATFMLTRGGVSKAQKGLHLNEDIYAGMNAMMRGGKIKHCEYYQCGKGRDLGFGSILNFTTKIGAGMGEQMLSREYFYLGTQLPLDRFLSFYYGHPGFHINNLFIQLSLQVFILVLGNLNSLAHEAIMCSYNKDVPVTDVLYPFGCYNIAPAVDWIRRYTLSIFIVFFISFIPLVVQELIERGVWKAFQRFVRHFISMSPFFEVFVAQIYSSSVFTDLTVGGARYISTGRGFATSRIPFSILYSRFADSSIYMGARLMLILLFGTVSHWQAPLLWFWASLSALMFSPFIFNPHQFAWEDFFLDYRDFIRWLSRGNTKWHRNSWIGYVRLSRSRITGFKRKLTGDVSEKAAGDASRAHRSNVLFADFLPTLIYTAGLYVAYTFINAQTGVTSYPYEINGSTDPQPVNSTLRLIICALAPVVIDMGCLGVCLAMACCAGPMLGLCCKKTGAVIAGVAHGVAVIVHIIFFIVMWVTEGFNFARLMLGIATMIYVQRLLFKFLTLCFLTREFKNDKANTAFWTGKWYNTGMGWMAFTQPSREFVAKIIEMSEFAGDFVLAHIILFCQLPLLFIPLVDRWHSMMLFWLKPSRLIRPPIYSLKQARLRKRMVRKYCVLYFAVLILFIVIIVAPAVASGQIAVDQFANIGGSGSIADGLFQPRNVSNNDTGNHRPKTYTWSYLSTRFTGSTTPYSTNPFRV
Numbered stars: 1 amine (or outer) side, 2 acyl side, 3 side chain; on linkers, the order of the positions; unused ones are H or OH. Bridge positions count the residues as written; N and C are the ends. Square brackets hold non-standard residues; d marks the D form. Peptide text beside a SMILES is read from it. * marks the point of attachment. Orn(4R-OH,5R-OH) = O=C([C@H](C[C@@H](O)[C@@H](O)N[*:3])N[*:1])[*:2]; hTyr(3S-OH,4S-OH) = N[C@H](C(=O)O)[C@H](O)[C@@H](O)c1ccc(O)cc1; X13 = CNCC[C@@H](O)[C@H](N[*:1])C(=O)[*:2]; Pro(3S-OH) = O=C(O)[C@H]1NCC[C@@H]1O; Hyp = O=C(O)[C@@H]1C[C@@H](O)CN1; X1 = CCC(C)CC(C)CCCCCCCCC(=O)*

{"compound": "CCC(C)CC(C)CCCCCCCCC(=O)N[C@H]1C[C@@H](O)[C@@H](O)NC(=O)[C@@H]2[C@@H](O)CCN2C(=O)[C@H]([C@H](O)CCNC)NC(=O)[C@H]([C@H](O)[C@@H](O)c2ccc(O)cc2)NC(=O)[C@@H]2C[C@@H](O)CN2C(=O)[C@H]([C@@H](C)O)NC1=O (stereo partly drawn) (X1-[Orn(4R-OH,5R-OH)]T[Hyp][hTyr(3S-OH,4S-OH)][X13][Pro(3S-OH)]; lactam 1-C)", "IC50, nM": 7}

FYI, the data here is from ChEMBL document CHEMBL1128045.
